assay type: physicochemical; details: ThT fluorescence category; 1 if Rel. ThT >2
Listed here are substances together with their documented ThT Cat..
Assay Metric: ThT Cat.

| Substance | Result |
| --- | --- |
| HHHHKIKIKIKIYYYY | 1 (ThT. Cat is 1, if Rel. ThT >2) |
| KIKIQI | 0 (ThT-inactive (N-Fold <2)) |
| KLKLQLL | 0 (ThT-inactive (N-Fold <2)) |
| CKAKAQA | 0 (ThT-inactive (N-Fold <2)) |
| KIKIKIKIWWWW | 1 (ThT. Cat is 1, if Rel. ThT >2) |
| KIKIQIRGD | 1 (ThT. Cat is 1, if Rel. ThT >2) |
| CSISIQI | 1 (ThT. Cat is 1, if Rel. ThT >2) |
| KIKQIINM | 0 (ThT-inactive (N-Fold <2)) |
| CSISIQINM | 1 (ThT. Cat is 1, if Rel. ThT >2) |
| KIKIQINMW | 1 (ThT. Cat is 1, if Rel. ThT >2) |
| KIKIKIKIYYYY | 0 (ThT-inactive (N-Fold <2)) |
| CKIKQIIRGD | 0 (ThT-inactive (N-Fold <2)) |
| RGDKIKIQIC | 1 (ThT. Cat is 1, if Rel. ThT >2) |
| KFKFQF | 0 (ThT-inactive (N-Fold <2)) |
| RGDKIKIQINM | 1 (ThT. Cat is 1, if Rel. ThT >2) |
| CKIKIQI | 1 (ThT. Cat is 1, if Rel. ThT >2) |
| NMWQKIKIQI | 1 (ThT. Cat is 1, if Rel. ThT >2) |
| CEIEIQINM | 1 (ThT. Cat is 1, if Rel. ThT >2) |
| KLKQLL | 0 (ThT-inactive (N-Fold <2)) |
| KVKVQVV | 0 (ThT-inactive (N-Fold <2)) |
| KIKIQIII | 1 (ThT. Cat is 1, if Rel. ThT >2) |
| KWKWQW | 0 (ThT-inactive (N-Fold <2)) |
| KVKVQVVV | 0 (ThT-inactive (N-Fold <2)) |

---

Format: physicochemical
Conditions: ThT category; 1 if Rel. ThT >2
Method: 4 µL of 1 mg/mL peptide fibrils solution is added to a 20 µL, 50 µM ThT–solution in PBS. The mixture is incubated for 15 min at RT to allow binding of ThT dye with β–sheet rich structures. […] Fluorescence spectra were recorded on an Infinite® M1000 PRO microplate reader (Tecan) at λem = 488 nm upon excitation at λex = 440 nm with 10 nm bandwidths and multiple reads per well (3×3). […] Furthermore, fluorescence microscopy was conducted by staining 1 µL preformed fibrils (1 mg/mL) with 9 µL ThT (50 µM). […]

| Substance | ThT Cat, |
| --- | --- |
| QCKIKIQINM | 1 (ThT. Cat is 1, if Rel. ThT >2) |
| HIHIQIC | 1 (ThT. Cat is 1, if Rel. ThT >2) |
| RGDCKIKIQINM | 0 (ThT-inactive (N-Fold <2)) |
| FKFDKFKFDK | 0 (ThT-inactive (N-Fold <2)) |
| QCKIKQIINMWQ [reference compound] | 1 (ThT. Cat is 1, if Rel. ThT >2) |
| KIEIQINM | 0 (ThT-inactive (N-Fold <2)) |
| KIKIQINMWA | 0 (ThT-inactive (N-Fold <2)) |
| KFKQFFINMWQ | 0 (ThT-inactive (N-Fold <2)) |
| QCKAKAQA | 0 (ThT-inactive (N-Fold <2)) |
| KVKVKVQV | 1 (ThT. Cat is 1, if Rel. ThT >2) |
| HGEHGE | 0 (ThT-inactive (N-Fold <2)) |
| CKAKAQANMWQ | 0 (ThT-inactive (N-Fold <2)) |
| QCKFKFQFNM | 1 (ThT. Cat is 1, if Rel. ThT >2) |
| KIKIQIN | 0 (ThT-inactive (N-Fold <2)) |
| PPFHPPPFHP | 0 (ThT-inactive (N-Fold <2)) |
| KLKQLL | 0 (ThT-inactive (N-Fold <2)) |
| HHHHKAKAKAKAWWWW | 1 (ThT. Cat is 1, if Rel. ThT >2) |
| KIKIQINMWWQ | 0 (ThT-inactive (N-Fold <2)) |
| CKFKFQFNMWQ | 1 (ThT. Cat is 1, if Rel. ThT >2) |
| QCKFKQFFNM | 1 (ThT. Cat is 1, if Rel. ThT >2) |
| KIKIQI | 0 (ThT-inactive (N-Fold <2)) |
| KFKFEFEF | 1 (ThT. Cat is 1, if Rel. ThT >2) |

---

Listed here are sequences together with their documented Log10 Count Rate.
assay: Turbidity, derived count rate of scattered light; assay type: physicochemical; conditions: turbidity, Log10 of derived count rate of scattered light; Figure 3A source data

| Residue Sequence | Log10 Count Rate |
| --- | --- |
| KIKIQINMWWWQ | 3.8806 |
| ILKNLSRSRKIKIQIC | 3.379 |
| KIKIQINMWQRGD | 3.445 |
| KAKAQANM | 1.628 |
| QCKFKQFFNM | 4.016 |
